# inhibition values compiled below
# assay_name: NOD1 signaling inhibitors, primary screen, cell-based, luminescence, uHTS (AID 1578);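 also: HEK-293T reporter cells stimulated with the NOD1 agonist gamma-tri-DAP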
# test_settings: NOD1-driven NF-kB luciferase reporter cells, at 4 µM, stronger effect = higher value
Hit rate of the full screen: of about 290,000 compounds, about 3,000 (1%) were called active. This excerpt belongs to a sample that is enriched for actives.
measured_quantity: inhibition (%)

INSERT INTO results (compound, units_text, reported_measurement) VALUES
  ('CC(=O)N/C(=C\c1ccc(F)cc1)C(=O)OCc1ccccc1', '%', -8),
  ('COc1ccc2[nH]c3c(N4CCN(Cc5ccc6c(c5)OCO6)CC4)ncnc3c2c1', '%', 23.1),
  ('COc1cc(CN2CCNC(=O)C2CC(=O)N(C)CCCN2CCOCC2)cc(OC)c1 (stereo not given)', '%', -24.5),
  ('CCOC(=O)c1ccc(Oc2cn[nH]c2-c2ccc(O)cc2O)cc1', '%', 5.5),
  ('COc1ccc(/C=N/NC(=O)C2C(C=C(Cl)Cl)C2(C)C)c(OC)c1 (stereo not given)', '%', -24.6);
